Measured values drawn from the supplement of paper PMC9170038 for this set.

Test system: MS2 coat protein
test method notes: apparent KD of MS2 coat protein; higher = weaker reporter binding
run parameters: Eterna round: R107; input ligand: arginine 13.2 mM
measure name: apparent KD of MS2 coat protein (nM)
Answers are plain numbers, in nM.

> print(dat)
                           monomer.sequence  quantitative.result
1  GUAUGGAAACAUACUAGGGUAUCAUGAGAUACCAGUACAGAAAUGUACCCUUGGCAGCUCAAGCAUACAUGAGGAUCACCCAUGU [Ex Theophylline A 7]                   15

// each listed sequence needs a value for apparent KD of MS2 coat protein
1. UGUAUGGGAACAUGAGGAUCACCCAUGUGGCGAGGACCGGUACGGCCGCCACUCGAGCAGCAAGCGUGUAUGACGCUGCUGCAUG [ss-trypA-0mod]
2. UGGUACAUGAGGAUCACCCAUGUUCCAGAUACCAGAUACCCGGUUAUCCCUUGGCAGCUGGUGGUACAUGAGGAUCACCCAUGUG [Exclusion Theophylline A GF15]

Out:
1. 225
2. 32.9

----------
Kindly state apparent KD of MS2 coat protein for each of the entries shown.
Tested on: MS2 coat protein
test method notes: apparent KD of MS2 coat protein; higher = weaker reporter binding
run parameters: Eterna round: R107; input ligand: theophylline 2 mM
One number for each entry, in nM.

Look at each sequence and report its apparent KD of MS2 coat protein.
1. GGCUAGGUCUCGGCCGCCACUGCUACAUGAGGAUCACCCAUGUACCUGGGCGGUCGCUCCCUCGGCAGGACCGGGAGACAUUCGU [Onarbeisan]
2. AAUAAUAGGUGAUCCUAACGAGUGGCAUAACGAGGACCGGUACGGCCGCCACUCGAACAUGAGGAUCACCCAUGUAGUCACUCGA [M'-T'-T-MS2-T'' - Design 5]
3. UUGGGUUUGUGAAGGAGCGGGAAUGUUUUAUAGUGGAUCCUAACAUGAGGAUCACCCAUGUCCCAGGUAGGUCGCGCGGGUUUGG [12.S]
4. AGUACUCGAACGGAUACCAGCCGGACAUGAGGAUCACCCAUGUCCUACCAUUGUUCGGUUGGCCCUUGGCAGCCGUUCGUGUACA [Omei Theo B SS A v4]

Out:
1. 12.5
2. 751
3. 79.9
4. 26.7

Provide each entry's apparent KD of MS2 coat protein from the list below.
1. AACAUGAGGAUCACCCAUGUCCUCGUGAUUCGAGGACCGGUACGGCCGCCACUCGGUCCUCGCGAGGUGGAGUCAAAGACUCCAA [Omei Trp A SS A v3]
2. GGUUGGUUUAUAUAUAGAUUGAUUACUGAAGGAGCGGGAAAUAACCCAGGUAGGUCGCAGAGAUCCACAUGAGGAUCACCCAUGU [!0.I]

Out:
1. 425
2. 53

----------
Test system: MS2 coat protein
test method notes: apparent KD of MS2 coat protein; designed switch direction (-1 OFF switch, 1 ON switch): -1; higher = weaker reporter binding
run parameters: input ligand: none
Please use Yes whenever apparent KD of MS2 coat protein is not below 0.02 µM, and No whenever it is.

monomer sequence	assigned class
AAGAAGGCAGGAUAUACAAAAUAAAAGAAAAGAAAGAAAGAACAUGAGGAUCACCCAUGUAGAAGGGUCAAGAA [Sankhenre Sewadjtu] (Eterna round: R96, puzzle: Exclusion 2)	Yes
UUAUAGUGAGGAUAUAUAUGCAGUAAACCUUUAAAUUUAUAACUUGAGGAUCACCCAAGUAGAAGGCGCGUUAU [JR_Ex2_Sub054] (Eterna round: R97, puzzle: Exclusion 2)	No
UUAAAUCAUGUAGGAUAUGCGUGGCGAAGCUAUGCAGAAGGACAUGAGGAUCACCCAUGUGCUUCCGUCUGCGUACAGAUGGUA [JL ENG1 1.13] (Eterna round: R96, puzzle: Exclusion NG 1)	Yes
UUAACAUUCGUCAGGAUAUUUGCUCGGUGUACGAGAGAGAAGGGACAUGAGGAUCACCCAUGUGACUUCAGCAA [Eternabot (Original) Solution 2] (Eterna round: R97, puzzle: Brourd's mod of Exclusion 4)	No
CGUGUACGAGGAUAUAGAUUGGAUGACAUGAGGAUCACCCAUGUGAUCAAUCUAUUUGGUUUAGAAGGUGUACAUG [JR_Ex5_Sub050] (Eterna round: R97, puzzle: Exclusion 5)	No
GUGUACAGAGGAUAUAUAUGAGCUAGGAAACUAGCAAACUCACAUGAGGAUCACCCAUGUAGAAGGCUGUACAC [Ex2: 722] (Eterna round: R96, puzzle: Exclusion 2)	Yes

Now let's try a different one.
In: Please indicate if the recorded apparent KD of MS2 coat protein for AUUAAUUGUCAGAUGGGUGACAUGAGGAUCACCCAUGUCACAAGCUUUUUGUUCGUCUUAUAAUUAACCCAUCUGAC [Stov1/11-B2] (Eterna round: R97, puzzle: Sensor, turn-off variant 1) meets or exceeds 0.02 µM.
Out: No
